Target: H1047R PIK3CA enzyme (Homo sapiens, UniProt P42336, H1047R)
Sequence (P42336 whole entry H1047R): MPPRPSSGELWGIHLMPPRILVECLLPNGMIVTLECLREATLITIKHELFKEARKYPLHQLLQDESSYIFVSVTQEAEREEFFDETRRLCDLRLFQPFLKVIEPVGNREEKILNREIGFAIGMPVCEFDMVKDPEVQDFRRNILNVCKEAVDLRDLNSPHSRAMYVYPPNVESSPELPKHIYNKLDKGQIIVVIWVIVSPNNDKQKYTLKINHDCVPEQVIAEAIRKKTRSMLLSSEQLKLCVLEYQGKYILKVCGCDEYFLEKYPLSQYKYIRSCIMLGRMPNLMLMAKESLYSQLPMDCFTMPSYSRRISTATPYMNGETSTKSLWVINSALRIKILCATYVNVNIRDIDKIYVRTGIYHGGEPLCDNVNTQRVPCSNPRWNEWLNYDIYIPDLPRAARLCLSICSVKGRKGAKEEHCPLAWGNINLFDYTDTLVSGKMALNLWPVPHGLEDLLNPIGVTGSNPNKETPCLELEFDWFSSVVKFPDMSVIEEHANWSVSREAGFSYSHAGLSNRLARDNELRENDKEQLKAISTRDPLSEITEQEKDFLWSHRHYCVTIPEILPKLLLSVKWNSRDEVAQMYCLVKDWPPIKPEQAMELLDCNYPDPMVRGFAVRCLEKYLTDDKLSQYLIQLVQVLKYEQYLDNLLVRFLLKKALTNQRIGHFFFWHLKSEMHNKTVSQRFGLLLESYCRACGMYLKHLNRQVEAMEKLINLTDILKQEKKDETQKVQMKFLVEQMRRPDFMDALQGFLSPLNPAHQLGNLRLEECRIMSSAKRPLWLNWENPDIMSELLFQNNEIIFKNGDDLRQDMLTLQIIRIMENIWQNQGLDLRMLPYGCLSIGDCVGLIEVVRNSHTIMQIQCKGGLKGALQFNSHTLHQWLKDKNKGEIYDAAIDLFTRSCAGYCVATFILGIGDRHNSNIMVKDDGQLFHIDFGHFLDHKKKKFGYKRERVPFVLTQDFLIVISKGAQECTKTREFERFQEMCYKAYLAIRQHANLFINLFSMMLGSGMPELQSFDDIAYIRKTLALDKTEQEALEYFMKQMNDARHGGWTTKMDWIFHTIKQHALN
Sequence (P27986 whole entry partner): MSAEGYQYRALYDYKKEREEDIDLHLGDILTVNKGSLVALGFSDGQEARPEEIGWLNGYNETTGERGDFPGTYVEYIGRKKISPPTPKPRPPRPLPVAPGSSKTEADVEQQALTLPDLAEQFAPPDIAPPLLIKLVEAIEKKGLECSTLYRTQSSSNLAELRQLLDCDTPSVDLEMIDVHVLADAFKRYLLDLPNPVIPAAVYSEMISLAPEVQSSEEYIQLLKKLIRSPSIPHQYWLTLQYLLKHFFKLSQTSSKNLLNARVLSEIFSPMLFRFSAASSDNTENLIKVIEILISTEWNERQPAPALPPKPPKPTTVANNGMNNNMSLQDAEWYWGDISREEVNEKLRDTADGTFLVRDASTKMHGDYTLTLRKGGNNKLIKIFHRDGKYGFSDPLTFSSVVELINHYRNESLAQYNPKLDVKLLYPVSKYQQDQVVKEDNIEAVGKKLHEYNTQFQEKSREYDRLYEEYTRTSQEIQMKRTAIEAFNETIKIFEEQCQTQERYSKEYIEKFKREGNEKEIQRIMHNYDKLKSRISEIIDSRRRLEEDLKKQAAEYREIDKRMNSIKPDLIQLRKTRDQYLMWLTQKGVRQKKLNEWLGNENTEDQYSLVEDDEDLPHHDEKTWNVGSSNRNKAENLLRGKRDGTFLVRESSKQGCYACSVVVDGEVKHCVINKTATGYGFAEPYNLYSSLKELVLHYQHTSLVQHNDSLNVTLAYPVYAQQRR
Test: ADP-Glo Biochemical PIK3CA Kinase Assay
pIC50: −log10 of the molar value.
reported endpoint: pIC50

compound	system name	pIC50
Cc1nccn1-c1cc(NC(=O)N2C[C@](O)(C(F)(F)F)c3cc(F)ccc32)c2c(c1)C(=O)N[C@H]2c1cc(F)ccc1Cl (single isomer, unassigned)	H1047R PIK3CA enzyme (Homo sapiens, UniProt P42336, H1047R)	5.00 to 6.00
O=C1NC(c2cc(F)ccc2Cl)c2c1cc(-c1cnn(C(F)F)c1)cc2-c1cn2ccc(C(F)(F)F)cc2n1 (centres unmarked)	H1047R PIK3CA enzyme (Homo sapiens, UniProt P42336, H1047R)	5.00 to 6.00
C[C@@H](C#N)Cn1cc(-c2cc(NC(=O)N3C[C@@H](O)c4cc(F)ccc43)c3c(c2)C(=O)N[C@@H]3c2cc(F)ccc2Cl)cn1 (single isomer, unassigned) [Compound I-2504]	H1047R PIK3CA enzyme (Homo sapiens, UniProt P42336, H1047R)	5.00 to 6.00

Exam item: Kindly indicate its recorded pIC50. Item: CC(=O)N1CCC[C@@H](Oc2cc(NC(=O)c3cc(F)cc(C(F)(F)F)c3)c3c(c2)C(=O)NC3c2cc(F)ccc2Cl)C1 (single isomer, unassigned)
Marked response: ≥ 7.00

Exam item: Kindly indicate its recorded pIC50. Item: CNS(=O)(=O)Cc1cc(NC(=O)c2cc(F)cc(C(F)(F)F)c2)c2c(c1)C(=O)NC2c1cc(F)ccc1Cl (centres unmarked)
Marked response: ≥ 7.00

* * *

Target: H1047R PIK3CA enzyme (Homo sapiens, UniProt P42336, H1047R)
Assay: ADP-Glo Biochemical PIK3CA Kinase Assay
reported endpoint: IC50

compound	IC50
Cc1nccn1-c1cc(NC(=O)N2C[C@@](O)(C(F)(F)F)c3cc(F)ccc32)c2c(c1)C(=O)N[C@H]2c1cc(F)ccc1Cl (single isomer, unassigned) [Compound I-2663]	1 to 10 µM
O=C(Nc1cc(CS(=O)(=O)N2CCOCC2)cc2c1[C@@H](c1cc(F)ccc1Cl)NC2=O)c1cc(F)cc(C(F)(F)F)c1 [Compound I-1484]	1 to 10 µM

Exam item: Kindly indicate its recorded IC50. Item: O=C1NC(c2cccnc2Cl)c2c(NC(=O)c3nsc4ccccc34)cccc21 (stereo not shown) [Compound I-158]
Marked response: 1 to 10 µM

Exam item: Kindly indicate its recorded IC50. Item: Cc1ccccc1C1NC(=O)c2cccc(-c3nnc(-c4ccccc4)[nH]3)c21 (stereo not shown) [Compound I-398]
Marked response: 10 to 100 µM

* * *

Molecular target: H1047R PIK3CA enzyme (Homo sapiens, UniProt P42336, H1047R)
Assay: ADP-Glo Biochemical PIK3CA Kinase Assay
reported endpoint: IC50

A selection of reference data follows.
>>> df
                                   compound    data_value
0  O=C(Nc1cccc2c(=O)[nH]n(C3CCCCC3)c12)c1cc(F)cc(C(F)(F)F)c1 [Compound I-629]    1 to 10 µM
1  O=C1NC(c2cc(F)ccc2Cl)c2c1cc(-c1ccc3ncnn3c1)cc2N(CC(=O)N1CCCCC1)C(=O)C(F)(F)F (stereo not shown) [Compound I-2001]  10 to 100 µM
2  O=C1NC(c2cc(F)ccc2Cl)c2c(NC(=O)N3CCc4cc(F)ccc43)cc(-c3cnn(C(F)F)c3)cc21 (stereo not shown) [Compound I-2300]      ≤ 0.1 µM
3  [2H]c1nc2ccc(-c3cc(NC(=O)c4cc(F)cc(C(F)(F)F)c4)c4c(c3)C(=O)NC4c3cc(F)ccc3Cl)cn2n1 (stereo not shown) [Compound I-1589]      ≤ 0.1 µM
4  Nc1cc(NC(=O)c2cc(F)cc(C(F)(F)F)c2)c2c(c1)C(=O)N[C@@H]2c1cc(F)ccc1Cl [Compound I-217]    1 to 10 µM
5  O=C(Nc1cc(-c2ccc3nnc(Cl)n3c2)cc2c1C(c1cc(F)ccc1Cl)NC2=O)c1cc(F)cc(C(F)(F)F)c1 (stereo not shown) [Compound I-1574]      ≤ 0.1 µM

Now consider a different compound.
Exam item: Recall the reported IC50 of COc1cccc2c(C(=O)Nc3cccc4c3C(c3ccccc3C)NC4=O)csc12 (stereo not shown) [Compound I-198] on H1047R PIK3CA enzyme (Homo sapiens, UniProt P42336, H1047R) and write it down.
Marked response: 10 to 100 µM
